Assay: Repeated oral dose PK in MDA-MB231 xenograft human PBMC adoptive transfer model
Format: in vivo, NSG mice
Conditions: female, NSG, mouse, plasma, po, 30 mg/kg, unbound; hPBMC AdT mouse; post 1st dose; p.o. 30 mg/kg daily
observable: AUC(0-inf)

>>> reported_measurement("O=C1CCC(N2Cc3cc(C4CCN(Cc5ccccc5)CC4)ccc3C2=O)C(=O)N1 (stereo not shown)")
"3470 ng·h/mL"

---

Test: Repeated oral dose PK in MDA-MB231 xenograft human PBMC adoptive transfer model
Format: in vivo, NSG mice
Details: female, NSG, mouse, plasma, po, 1 mg/kg, unbound; hPBMC AdT mouse; post 1st dose; p.o. 1 mg/kg daily
observable: Cmax (ng/mL)

>>> reported_measurement("O=C1CCC(N2Cc3cc(C4CCN(Cc5ccccc5)CC4)ccc3C2=O)C(=O)N1 (stereo not shown)")
8.8

---

Assay: In vivo non-clinical PK, mouse
Details: brain, read-out: brain/plasma ratio
observable: Kp

>>> reported_measurement("O=C1CCC(N2Cc3cc(C4CCN(Cc5ccccc5)CC4)ccc3C2=O)C(=O)N1 (stereo not shown)")
0.07

---

Test: Repeated oral dose PK in MDA-MB231 xenograft human PBMC adoptive transfer model
Format: in vivo, NSG mice
Details: female, NSG, mouse, plasma, po, 1 mg/kg, unbound; hPBMC AdT mouse; post 1st dose; p.o. 1 mg/kg daily
observable: AUC(0-inf)

>>> reported_measurement("O=C1CCC(N2Cc3cc(C4CCN(Cc5ccccc5)CC4)ccc3C2=O)C(=O)N1 (stereo not shown)")
"30 ng·h/mL"

---

Assay: Single oral dose PK in cynomolgus monkey
Format: in vivo
Details: plasma, unbound, single oral dose 0.1 mg/kg, n = 3, mean ± SD, read-out: AUC24 h
observable: AUC(0-t) (ng·h/mL)

>>> reported_measurement("O=C1CCC(N2Cc3cc(C4CCN(Cc5ccccc5)CC4)ccc3C2=O)C(=O)N1 (stereo not shown)")
102

---

Experiment: Repeated oral dose PK in MDA-MB231 xenograft human PBMC adoptive transfer model
Assay type: in vivo, NSG mice
Conditions: female, NSG, mouse, plasma, po, 30 mg/kg, unbound; hPBMC AdT mouse; post 13th dose; p.o. 30 mg/kg daily
Procedure: The PK/PD relationship of I-57 was examined in the hPBMC AdT model system. Human PBMCs were adoptively transferred into female NSG mice harboring established MDA-MB231 xenografts (FIG. 6). This model was selected based on the observation that IKZF2 positive Tregs (CD4+FOXP3+) were readily identifiable in peripheral blood and infiltrated in the tumor xenografts. Mice were administered I-57 daily for 14 consecutive days at the doses shown. […]
observable: Cmax

>>> reported_measurement("O=C1CCC(N2Cc3cc(C4CCN(Cc5ccccc5)CC4)ccc3C2=O)C(=O)N1 (stereo not shown)")
"1300 ng/mL"
